Some compounds, each annotated with its measured IC50.
- Tested on: KC-1474:PC-9 EGFR-Del19/T790M/C797S
- METHOD_DESCRIPTION: Cell proliferation inhibition experiment (CCK-8), KC-1474
- Format: cell-based
- ASSAY_CONTEXT: Homo sapiens, 72 h

| COMPOUND | IC50 |
| --- | --- |
| CN1CCN(c2ccc(Nc3nc(NC4CCOCC4)c4c(C(=O)c5ccc(F)cc5)c[nH]c4n3)cc2)CC1 [Example 40] | < 0.1 µM |

Lab note: compound Cc1ccc(C(=O)c2c[nH]c3nc(Nc4ccc(N5CCOCC5)cc4)nc(N[C@H]4CC[C@H](CO)CC4)c23)cc1 [Example 97] tested on KC-1474:PC-9 EGFR-Del19/T790M/C797S; recorded IC50 was 0.1 to 1 µM

Lab note: compound C=CC(=O)Nc1cc(Nc2nccc(-c3cn(C)c4ccccc34)n2)c(OC)cc1N(C)CCN(C)C [Osimertinib, reference compound] tested on KC-1474:PC-9 EGFR-Del19/T790M/C797S; recorded IC50 was 1 to 2 µM

Lab note: compound CN1CCN(c2ccc(Nc3nc(N[C@@H]4CC[C@@H](CO)OC4)c4c(C(=O)c5ccc(F)cc5)c[nH]c4n3)cc2)CC1 [Example 95] tested on KC-1474:PC-9 EGFR-Del19/T790M/C797S; recorded IC50 was 0.1 to 1 µM

Lab note: compound COc1nn(C)cc1Nc1nc(N[C@H]2CC[C@@H](CO)CC2)c2c(C(=O)c3ccc(F)cc3)c[nH]c2n1 [Example 116] tested on KC-1474:PC-9 EGFR-Del19/T790M/C797S; recorded IC50 was 0.1 to 1 µM

Lab note: compound CN1CCC(n2cc(Nc3nc(N[C@H]4CC[C@@H](CO)CC4)c4c(C(=O)c5ccc(F)cc5)c[nH]c4n3)cn2)CC1 [Example 115] tested on KC-1474:PC-9 EGFR-Del19/T790M/C797S; recorded IC50 was 0.1 to 1 µM

Lab note: compound CN1CCN(c2ccc(Nc3nc(N[C@H]4CC[C@H](O)CC4)c4c(C(=O)c5ccc(F)cc5)c[nH]c4n3)cc2)CC1 [Example 56] tested on KC-1474:PC-9 EGFR-Del19/T790M/C797S; recorded IC50 was < 0.1 µM

Lab note: compound CN1CCN(c2ccc(Nc3nc(N[C@H]4CC[C@@H](CO)CC4)c4c(C(=O)c5ccc(F)cc5)c[nH]c4n3)cc2)CC1 [Example 60] tested on KC-1474:PC-9 EGFR-Del19/T790M/C797S; recorded IC50 was < 0.1 µM
